Data credit: patent US20240083857A1

- Measured on: human SOS1 (nucleotide exchange of K-Ras^G12C) (Homo sapiens, UniProt Q07889)
- Assay overview: Biochemical assay 2: K-Ras^G12C activation assay by hSOS1 at high GTP concentration (HTRF)
- Run parameters: high GTP; read-out: Assay 2 (KRAS-Activation by SOS high GTP) activity expressed as IC50
pIC50: −log10 of the molar value.
Decision: pIC50 >= 6 yields rule met, all other cases yield rule not met.

Example entries and their recorded answers appear below.
# Compound, Measured on, Class name
records = [
    ("COc1cc2nc(C)nc(NC(C)c3cccc4scnc34)c2cc1OC (centres unmarked) [Example 14]", "human SOS1 (nucleotide exchange of K-Ras^G12C) (Homo sapiens, UniProt Q07889)", "rule met"),
    ("COc1cc2nc(C)nc(NC(C)c3cccc4cn(C)nc34)c2cc1OC (centres unmarked) [Example 8]", "human SOS1 (nucleotide exchange of K-Ras^G12C) (Homo sapiens, UniProt Q07889)", "rule not met"),
    ("COc1cc2nc(C)nc(NC(C)c3ccc(-c4ccccc4CN4CCC(O)C4)s3)c2cc1OC (centres unmarked) [Example 210]", "human SOS1 (nucleotide exchange of K-Ras^G12C) (Homo sapiens, UniProt Q07889)", "rule met"),
    ("COc1cc2nc(C)nc(NC(C)c3ccc(-c4ccccc4CN4CC5(COC5)C4)s3)c2cc1OC (centres unmarked) [Example 182]", "human SOS1 (nucleotide exchange of K-Ras^G12C) (Homo sapiens, UniProt Q07889)", "rule met"),
    ("COc1cc2nc(C)nc(N[C@@H](C)c3ccc(/C=C/C4CC4)s3)c2cc1OC (racemic) [Example 132]", "human SOS1 (nucleotide exchange of K-Ras^G12C) (Homo sapiens, UniProt Q07889)", "rule not met"),
    ("COc1cc2nc(C)nc(N[C@H](C)c3cccc(Br)c3)c2cc1OCc1ccccc1 [Example 343]", "human SOS1 (nucleotide exchange of K-Ras^G12C) (Homo sapiens, UniProt Q07889)", "rule not met"),
]

For the next question, use this compound.
Q. hey, is pIC50 for this one >= 6? COc1cc2nc(C)nc(NC(C)c3ccc(-c4ccccc4CN(C)CCO)s3)c2cc1OC (centres unmarked) [Example 298]
A. rule met

----------
- Measured on: K-Ras^G12C : hSOS1 interaction (Homo sapiens, UniProt Q07889)
- Assay overview: Biochemical assay 1: K-Ras^G12C interaction assay with hSOS1 (HTRF)
- Type: binding
- Run parameters: E-notation values; unit inferred; read-out: Assay 1 (KRAS-SOS interaction) IC50
Readout label: pIC50
Friendly reminder that pIC50 comes from taking -log10 of the concentration in mol/L.

Sample records with pIC50:
# Compound, pIC50
measured = [
    ("COc1cc2nc(C)nc(NC(C)c3ccc(-c4ccccc4CN(C)C)s3)c2cc1OC (single isomer, unassigned) [Example 391]", 7.81),
    ("Cc1nc(NC(C)c2ccc(Br)s2)c2cc(N3CCCC3)ccc2n1 (stereo not shown)", 5.19),
    ("COc1cc2nc(C)nc(NC(C)c3ccc(-c4ccccc4C(C)(C)N)s3)c2cc1OC (stereo not shown)", 6.40),
]

Query compound follows.
Q. Which pIC50 is reported for this compound? COCCNCc1ccccc1-c1ccc(C(C)Nc2nc(C)nc3cc(OC)c(OC)cc23)s1 (stereo not shown)
A. 7.00
